Test system: Spodoptera eridania
Experiment: Action on Southern Armyworm (Spodoptera eridania), 2nd Instar Larvae
Type: in vivo
Conditions: 300 ppm; 2nd instar larvae; 4 days after treatment
Measured property: mortality in comparison with untreated controls

query: Please look at this compound and report its mortality in comparison with untreated controls: Cc1ccc(C(C)C)c(N2C(=O)CS/C2=N\C(=O)Nc2ccc(-n3cc(NC(=O)c4cccs4)c(C)n3)cc2)c1 [Example C-95]
result: at least 75%

query: Tell me its mortality in comparison with untreated controls given Cc1ccc(C(F)(F)F)c(N2C(=O)CS/C2=N\C(=O)Nc2ccc(-n3nc(C)c(NC(=O)c4ccc(OC(F)(F)F)cc4)c3C)cc2)c1 [Example C-16] as the entry.
result: at least 75%

query: Answer with reported mortality in comparison with untreated controls of Cc1ccc(C(C)C)c(N2C(=O)CSC2=NC(=O)Nc2ccc(-n3cc(NC(=O)c4nc(Cl)cs4)c(C)n3)cc2)c1 [Example C-42]
result: at least 75%
